- target.under.test: Peroxisome proliferator-activated receptor gamma (Homo sapiens)
- Sequence (P37231 whole entry): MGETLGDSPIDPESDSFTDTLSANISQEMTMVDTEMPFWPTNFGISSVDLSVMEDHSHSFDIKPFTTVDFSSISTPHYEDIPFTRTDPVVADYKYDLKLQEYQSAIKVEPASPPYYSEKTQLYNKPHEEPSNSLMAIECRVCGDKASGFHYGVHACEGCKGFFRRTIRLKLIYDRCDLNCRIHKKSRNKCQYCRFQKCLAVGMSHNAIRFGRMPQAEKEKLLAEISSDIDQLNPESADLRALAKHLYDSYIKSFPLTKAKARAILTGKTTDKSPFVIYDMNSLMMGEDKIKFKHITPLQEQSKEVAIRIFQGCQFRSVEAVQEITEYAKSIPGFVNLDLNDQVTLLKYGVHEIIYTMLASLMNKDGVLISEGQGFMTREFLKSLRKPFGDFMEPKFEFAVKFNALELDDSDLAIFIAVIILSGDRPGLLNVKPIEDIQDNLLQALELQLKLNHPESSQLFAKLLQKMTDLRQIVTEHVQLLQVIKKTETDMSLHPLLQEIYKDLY
- experiment.notes: Agonist activity against human Peroxisome proliferator activated receptor gamma receptor in CV-1 cell was determined
- Assay type: functional, cell-based
pEC50: −log10 of the molar value.
experimental.readout: pEC50

INSERT INTO results (compound, obs_value) VALUES
  ('CC(C)OC(Cc1ccc(OCc2noc(-c3ccc(F)cc3)n2)cc1)C(=O)O (stereo unspecified)', 6.70),
  ('CC(C)OC(Cc1ccc(OCCc2noc(-c3cccc(Cl)c3)n2)cc1)C(=O)O (stereo unspecified)', 8.40),
  ('Cc1ccccc1-c1nc(COc2ccc(CC(OC(C)C)C(=O)O)cc2)no1 (stereo unspecified)', 7.00),
  ('CC(C)OC(Cc1ccc(OCCc2noc(-c3ccccc3)n2)cc1)C(=O)O (stereo unspecified)', 7.89),
  ('CC(C)OC(Cc1ccc(OCCc2noc(-c3ccc(Cl)cc3)n2)cc1)C(=O)O (stereo unspecified)', 7.60),
  ('CC(C)OC(Cc1ccc(OCc2noc(-c3ccc(C(C)(C)C)cc3)n2)cc1)C(=O)O (stereo unspecified)', 8.52),
  ('CC(C)OC(Cc1ccc(OCCc2noc(-c3cccc(F)c3)n2)cc1)C(=O)O (stereo unspecified)', 8.70),
  ('CC(C)OC(Cc1ccc(OCc2noc(-c3cc(C(F)(F)F)cc(C(F)(F)F)c3)n2)cc1)C(=O)O (stereo unspecified)', 7.49),
  ('Cc1ccc(-c2nc(COc3ccc(CC(OC(C)C)C(=O)O)cc3)no2)cc1 (stereo unspecified)', 7.80),
  ('CC(C)OC(Cc1ccc(OCc2noc(-c3cc(F)cc(F)c3)n2)cc1)C(=O)O (stereo unspecified)', 7.00),
  ('CC(C)OC(Cc1ccc(OCc2noc(-c3ccccc3)n2)cc1)C(=O)O (stereo unspecified)', 7.10);
